target_or_test_system: T1, Anti-CD28 Fab (SEQ ID NOs: 696, 697)
T1 construct: Biotinylated and captured on neutravidin coated plates in the phage ELISA
T1 sequence (VH, as listed by the source, chain 1 of 2): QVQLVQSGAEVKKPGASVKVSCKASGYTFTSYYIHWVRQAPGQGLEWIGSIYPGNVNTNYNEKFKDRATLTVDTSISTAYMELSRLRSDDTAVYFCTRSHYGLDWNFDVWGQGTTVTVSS
T1 sequence (VL, as listed by the source, chain 2 of 2): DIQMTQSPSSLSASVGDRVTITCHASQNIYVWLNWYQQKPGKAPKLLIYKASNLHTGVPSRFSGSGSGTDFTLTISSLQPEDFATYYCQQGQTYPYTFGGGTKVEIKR
protocol: phage binding ELISA on plate-bound anti-CD28 Fab, wells pre-incubated with CD28 antigen as competitor
measured_metric: Anti-CD28 Fab signal in the presence of CD28
Field format: numeric only.

Study these solved cases before continuing.
In [3]: df
Out[3]:
                                     binder  endpoint_value
0  YCDGHLEEYMVKCM (Peptide-87 library clone, tested as clonal phage (peptide fused to pIII)) [Phage-863]            0.06
1  YCDGHASEYMAKCL (Peptide-87 library clone, tested as clonal phage (peptide fused to pIII)) [Phage-857]            0.09
2  YCEGHLQTYMAKCL (Peptide-87 library clone, tested as clonal phage (peptide fused to pIII)) [Phage-864]            0.07
3  YCEGHLPEYMQKCL (Peptide-87 library clone, tested as clonal phage (peptide fused to pIII)) [Phage-854]            0.07

Any idea what Anti-CD28 Fab signal in the presence of CD28 was measured for YCEGHLPDYMQKCL (Peptide-87 library clone, tested as clonal phage (peptide fused to pIII)) [Phage-862] ? 0.07

Quick one: Anti-CD28 Fab signal in the presence of CD28 for YCSGHLPEYMQKCL (Peptide-87 library clone, tested as clonal phage (peptide fused to pIII)) [Phage-853] ? 0.08

For the binder YCSGHSAEYMLKCL (Peptide-87 library clone, tested as clonal phage (peptide fused to pIII)) [Phage-861] , what Anti-CD28 Fab signal in the presence of CD28 is on record? 0.08

What value of Anti-CD28 Fab signal in the presence of CD28 has been reported for the following binder? YCDGHYPEYMSKCL (Peptide-87 library clone, tested as clonal phage (peptide fused to pIII)) [Phage-856] 0.06

Endpoint output: Anti-CD28 Fab signal in the presence of CD28 of YCEGHSAEYMEKCL (Peptide-87 library clone, tested as clonal phage (peptide fused to pIII)) [Phage-860] . Value? 0.07

These data points were gathered from patent US20260242478A1.
